system: Escherichia coli TOP10; assay: shrunken log2 fold change of peptide-encoding DNA abundance (4.5 h post-induction vs induction); higher = less antimicrobial activity (less host growth inhibition); conditions: time post-induction: 4.5 h; library: site-saturation at positions 5, 18, 19, 20
Rule: Met for shrunken log2 fold change not less than 0.1, Not met for anything less.

Does `RRIRCRPPRLPRPRPRPRWPPRP` have a reported shrunken log2 fold change of at least 0.1?
Met

----------
tested on: Escherichia coli TOP10; assay: shrunken log2 fold change of peptide-encoding DNA abundance (4.5 h post-induction vs induction); higher = less antimicrobial activity (less host growth inhibition); details: time post-induction: 4.5 h; library: site-saturation at positions 5, 18, 19, 20
# Lookup of reported shrunken log2 fold change keyed by entry
Number only, please.

Return shrunken log2 fold change (reported value) for this sequence: `RRIRMRPPRLPRPRPRPVSYPRP`
-0.00671

Return shrunken log2 fold change (reported value) for this sequence: `RRIRSRPPRLPRPRPRPMNVPRP`
-0.0106

Return shrunken log2 fold change (reported value) for this sequence: `RRIRLRPPRLPRPRPRPPCTPRP`
0.036

----------
system: Escherichia coli TOP10; assay: shrunken log2 fold change of peptide-encoding DNA abundance (4.5 h post-induction vs induction); higher = less antimicrobial activity (less host growth inhibition); details: time post-induction: 4.5 h; library: site-saturation at positions 5, 18, 19, 20
# Lookup of reported shrunken log2 fold change keyed by entry
Number only, please.

Previously resolved entries follow.
{"columns": ["Ordered residues", "Study system", "shrunken log2 fold change"],
 "data": [
  ["RRIRTRPPRLPRPRPRPCVPPRP", "Escherichia coli TOP10", -0.109],
  ["RRIRRRPPRLPRPRPRPVEIPRP", "Escherichia coli TOP10", 0.048],
  ["RRIRLRPPRLPRPRPRPVEVPRP", "Escherichia coli TOP10", -0.0272],
  ["RRIRMRPPRLPRPRPRPNVWPRP", "Escherichia coli TOP10", 0.303]
]}

Return shrunken log2 fold change (reported value) for this sequence: `RRIRPRPPRLPRPRPRPACSPRP`
0.184

Return shrunken log2 fold change (reported value) for this sequence: `RRIRQRPPRLPRPRPRPPIHPRP`
-0.0767

Return shrunken log2 fold change (reported value) for this sequence: `RRIRLRPPRLPRPRPRPVFDPRP`
-0.251

Return shrunken log2 fold change (reported value) for this sequence: `RRIRKRPPRLPRPRPRPKPPPRP`
0.76

Return shrunken log2 fold change (reported value) for this sequence: `RRIRRRPPRLPRPRPRPPAQPRP`
0.535

Return shrunken log2 fold change (reported value) for this sequence: `RRIRTRPPRLPRPRPRPQKQPRP`
0.166

----------
test system: Escherichia coli TOP10; experiment: shrunken log2 fold change of peptide-encoding DNA abundance (4.5 h post-induction vs induction); higher = less antimicrobial activity (less host growth inhibition); conditions: time post-induction: 4.5 h; library: site-saturation at positions 5, 18, 19, 20;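 also: peptides expressed intracellularly from a pBAD plasmid library in pooled LB shake-flask culture, induced with 0.3% L-arabinose, DNA abundance read by NGS, three biological replicates, DESeq2 with apeglm shrinkage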
Rule: t for shrunken log2 fold change not less than -0.03, f for anything less.

// below: answered sequences
{"columns": ["Ordered residues", "Study system", "Class"],
 "data": [
  ["RRIRARPPRLPRPRPRPRMPPRP", "Escherichia coli TOP10", "t"],
  ["RRIRQRPPRLPRPRPRPNSFPRP", "Escherichia coli TOP10", "t"],
  ["RRIRYRPPRLPRPRPRPDEHPRP", "Escherichia coli TOP10", "t"],
  ["RRIRDRPPRLPRPRPRPVDQPRP", "Escherichia coli TOP10", "f"],
  ["RRIRFRPPRLPRPRPRPRMNPRP", "Escherichia coli TOP10", "f"]
]}

Does `RRIRMRPPRLPRPRPRPTMRPRP` have a reported shrunken log2 fold change of at least -0.03?
t

Does `RRIRRRPPRLPRPRPRPMYRPRP` have a reported shrunken log2 fold change of at least -0.03?
t
